A collection of compounds and their measured IC50/EC50, hNCI-H716 GLP1 Secretion (assay number 12)
System: NCI-H716 cells
Experiment: cells
Assay type: cell-based, Human
Details: concentration response
recorded-metric: IC50/EC50, hNCI-H716 GLP1 Secretion (assay number 12)

{"columns": ["smiles-str", "test-result"],
 "data": [
  ["Cc1cc(O)c2c(O)c3c(O)cccc3cc2c1", "> 20 µM"],
  ["Clc1ccccc1C(c1ccccc1)(c1ccccc1)n1ccnc1", "20.2249 µM"],
  ["CCOC(=O)[C@@H](N)CS.Cl", "> 40 µM"],
  ["CN(C(=O)CN(CCO)CC(=O)N(C)C(C)(C)Cc1ccccc1)C(C)(C)Cc1ccccc1", "25.0515 µM"],
  ["Cc1ccc(C(=O)Nc2ccc(S(=O)(=O)O)c3cc(S(=O)(=O)O)cc(S(=O)(=O)O)c23)cc1NC(=O)c1cccc(NC(=O)Nc2cccc(C(=O)Nc3cc(C(=O)Nc4ccc(S(=O)(=O)O)c5cc(S(=O)(=O)O)cc(S(=O)(=O)O)c45)ccc3C)c2)c1", "> 40 µM"],
  ["O=c1[nH]sc2cc(Cl)ccc12", "> 40 µM"]
]}
